Values from patent US20180291096A1

Record form. Attribute: pKd. Fill in for each entry.
Biological target: T1, recombinant human IL-23 (hrIL-23), produced at Centocor (human, UniProt P29460 23-328)
T1 construct: p19-p40 heterodimer; also called rhIL-23; huIL-23
T1 sequence 1: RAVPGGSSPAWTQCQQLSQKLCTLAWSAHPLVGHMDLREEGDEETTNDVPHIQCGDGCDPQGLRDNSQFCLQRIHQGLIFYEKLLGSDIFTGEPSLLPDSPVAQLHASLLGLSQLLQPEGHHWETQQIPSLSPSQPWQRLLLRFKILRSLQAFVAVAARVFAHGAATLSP
T1 sequence 2: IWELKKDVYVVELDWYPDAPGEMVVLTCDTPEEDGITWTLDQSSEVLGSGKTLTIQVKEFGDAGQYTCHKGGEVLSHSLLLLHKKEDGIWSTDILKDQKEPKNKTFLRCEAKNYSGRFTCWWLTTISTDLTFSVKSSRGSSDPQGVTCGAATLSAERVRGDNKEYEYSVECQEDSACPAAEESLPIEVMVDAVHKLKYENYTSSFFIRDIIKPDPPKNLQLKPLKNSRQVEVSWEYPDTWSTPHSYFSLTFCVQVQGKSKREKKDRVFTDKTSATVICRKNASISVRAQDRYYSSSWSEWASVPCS
Assay: SET
One number for each entry, as −log10 of the molar value.

{"binder": "MOR05058 Fab (Fab, V domains shown, Fab) VH: QVQLVQSGAEVKKPGESLKISCKGSGYSFSNYWIGWVRQMPGKGLEWMGIIDPSNSYTNYSPSFQGQVTISADKSISTAYLQWSSLKASDTAMYYCARWYYKPFDVWGQGTLVTVSS VL: DIVLTQPPSVSGAPGQRVTISCTGSSSNIGSGYDVHWYQQLPGTAPKLLIYGNSKRPSGVPDRFSGSKSGTSASLAITGLQSEDEADYYCSSWTDTPNMIVFGGGTKLTVL", "obs.value": 10.48}
{"binder": "MOR05044 Fab (Fab, V domains shown, Fab) VH: QVQLVQSGAEVKKPGESLKISCKGSGYSFSNYWIGWVRQMPGKGLEWMGIISPSGSTTWYSPSFQGQVTISADKSISTAYLQWSSLKASDTAMYYCARWYYKPFDVWGQGTLVTVSS VL: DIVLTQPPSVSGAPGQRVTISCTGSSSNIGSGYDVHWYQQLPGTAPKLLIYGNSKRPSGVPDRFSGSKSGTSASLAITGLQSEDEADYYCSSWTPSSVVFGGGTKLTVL", "obs.value": 10.37}
{"binder": "MOR05042 Fab (Fab, V domains shown, Fab) VH: QVQLVQSGAEVKKPGESLKISCKGSGYSFSNYWIGWVRQMPGKGLEWMGIISPTGSSTWYSPSFQGQVTISADKSISTAYLQWSSLKASDTAMYYCARWYYKPFDVWGQGTLVTVSS VL: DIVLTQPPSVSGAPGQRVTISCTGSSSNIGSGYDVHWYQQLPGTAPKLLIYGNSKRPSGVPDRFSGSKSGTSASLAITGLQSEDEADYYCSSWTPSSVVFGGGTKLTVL", "obs.value": 11.40}

Moving on to another binder below.
Which pKd is reported for this binder? MOR04649 Fab (Fab, V domains shown, Fab) VH: QVQLVQSGAEVKKPGESLKISCKGSGYSFSNYWIGWVRQMPGKGLEWMGIIDPSNSYTNYSPSFQGQVTISADKSISTAYLQWSSLKASDTAMYYCARWYYKPFDVWGQGTLVTVSS VL: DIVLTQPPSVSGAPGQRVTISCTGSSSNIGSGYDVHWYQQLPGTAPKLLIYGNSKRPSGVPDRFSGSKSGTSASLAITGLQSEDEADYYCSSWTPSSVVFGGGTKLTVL
8.96
